Every entry's value here was drawn from patent US6706663B2.

Preemergence herbicidal rating GALAP values by entry
System: GALAP (Galium aparine)
Experiment: Preemergence herbicidal evaluation
Format: in vivo
Conditions: Rate 0.0620 kg/ha; rated 4-5 weeks after treatment
quantity_name: Preemergence herbicidal rating GALAP

compound	quantity_name	numeric_result
CCOc1cc(OCC)nc(-c2nsc3ccc(-n4c(=O)cc(C(F)(F)F)n(C)c4=O)cc23)n1	Preemergence herbicidal rating GALAP	1.0
COCC1COC(c2nsc3ccc(-n4c(=O)cc(C(F)(F)F)n(C)c4=O)cc23)O1 (centres unmarked)	Preemergence herbicidal rating GALAP	9.0
C[C@@H]1OC(c2nsc3cc(F)c(-n4c(=O)cc(C(F)(F)F)n(C)c4=O)cc23)O[C@@H]1C (some centres unmarked)	Preemergence herbicidal rating GALAP	9.0
C#CCOC(=O)COc1ccsc1-c1nsc2ccc(-n3c(=O)cc(C(F)(F)F)n(C)c3=O)cc12	Preemergence herbicidal rating GALAP	0.0
Cn1c(C(F)(F)F)cc(=O)n(-c2ccc3snc(-c4ccco4)c3c2)c1=O	Preemergence herbicidal rating GALAP	6.0
